biological target: Adrenergic receptor alpha-1 (Rattus norvegicus, UniProt P15823+P23944+P43140); assay: Binding affinity towards Alpha-1 adrenergic receptor of rat brain
Recorded metric: Ki (µM)
API: value field is a number in µM; no unit string.

Solved cases below.
Oc1ccc(C2(O)CCCNC2)cc1O (stereo not drawn) :: 15
CC(C)NC1CCc2cc(O)c(O)cc2[C@H]1O (stereo partly drawn) :: 1.2
N[C@@H]1CCc2cc(O)c(O)cc2[C@H]1O :: 0.3
CC(C)N1CCOC(c2ccc(O)c(O)c2)C1 (stereo not drawn) :: 6.7
CC(C)N1CCCC(O)(c2ccc(O)c(O)c2)C1 (stereo not drawn) :: 36

Okay, next one:
Ask: What value of Ki has been recorded for this entry: Oc1ccc(C2CNCCO2)cc1O (stereo not drawn)
Reply: 7.4

====

molecular target: Beta-2 adrenergic receptor (Cavia porcellus)
Recorded metric: pD2

Oc1ccc(C2CNCCO2)cc1O (centres undefined) :: 4.76
CC(C)NC1CCc2cc(O)c(O)cc2[C@H]1O (some centres undefined) :: 6.17
Oc1ccc(C2(O)CCCNC2)cc1O (centres undefined) :: 4.44

Please find the next molecule below.
Ask: Given the entry NC[C@H](O)c1ccc(O)c(O)c1 [NOREPINEPHRINE] , what pD2 was observed with Beta-2 adrenergic receptor (Cavia porcellus)?
Reply: 6.03

====

target: Adrenergic receptor alpha-2 (Rattus norvegicus, UniProt P22086+P19328+P22909); assay: Compound was evaluated for alpha adrenergic binding affinity towards Alpha-2 adrenergic receptor of rat brain
Reported Ki is given for each of the following compounds.

# annotated cases, reported Ki shown
N[C@@H]1CCc2c(ccc(O)c2O)[C@H]1O :: 2.9 µM
Oc1ccc(C2(O)CCCNC2)cc1O (stereo unspecified) :: 0.5 µM
CC(C)N1CCOC(c2ccc(O)c(O)c2)C1 (stereo unspecified) :: 5.1 µM

Ask: Form field: reported Ki of CC(C)NCC(O)c1ccc(O)c(O)c1 (stereo unspecified) [ISOPROTERENOL]
Reply: 21 µM

Ask: Endpoint output: Ki of Oc1ccc(C2CNCCO2)cc1O (stereo unspecified) . Value?
Reply: 0.026 µM

Ask: Which Ki is listed for CC(C)NC1CCc2cc(O)c(O)cc2[C@H]1O (stereo partly specified) ?
Reply: 1.57 µM

====

Catalogue of pKi values
biological target: Beta-2 adrenergic receptor (Bos taurus, UniProt Q28044); test: Compound was evaluated for beta adrenergic binding affinity towards Beta-2 adrenergic receptor of bovine lung
Sequence (Q28044 whole entry): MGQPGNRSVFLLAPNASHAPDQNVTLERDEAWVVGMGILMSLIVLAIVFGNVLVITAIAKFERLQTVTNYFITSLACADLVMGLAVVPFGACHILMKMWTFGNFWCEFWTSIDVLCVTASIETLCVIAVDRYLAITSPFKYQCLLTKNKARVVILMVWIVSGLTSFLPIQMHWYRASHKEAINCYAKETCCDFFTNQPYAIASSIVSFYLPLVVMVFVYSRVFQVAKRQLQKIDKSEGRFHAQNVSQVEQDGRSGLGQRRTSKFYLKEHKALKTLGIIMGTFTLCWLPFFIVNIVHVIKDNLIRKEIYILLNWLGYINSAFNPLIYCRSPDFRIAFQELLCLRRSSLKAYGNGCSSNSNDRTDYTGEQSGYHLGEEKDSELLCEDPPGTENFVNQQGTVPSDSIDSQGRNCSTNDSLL
Expect pKi as a plain number equal to -log10 of the molar concentration.

Worked examples, 2 compounds total:
CC(C)N[C@@H]1CCc2c(ccc(O)c2O)[C@H]1O :: 7.21
N[C@@H]1CCc2cc(O)c(O)cc2[C@H]1O :: 4.15

Ask: Tell me the measured pKi of CC(C)N1CCCC(O)(c2ccc(O)c(O)c2)C1 (stereo not drawn) , please.
Reply: 4.04

====

biological target: Adrenergic receptor alpha-2 (Homo sapiens) (UniProt P08913+P18825+P18089); settings: Cavia porcellus; Ileum
Description: Intrinsic activity was expressed as the ratio between maximal response elicited by compound and that elicited by full agonist NE towards Alpha-2 adrenergic receptor of isolated guinea pig ileum
Recorded metric: pD2
Answer field: number only, no words.

Ask: // pD2 lookup, key: N[C@@H]1CCc2c(ccc(O)c2O)[C@H]1O
Reply: 5.32

Ask: GET /values?readout=pD2&item= NC[C@H](O)c1ccc(O)c(O)c1 [NOREPINEPHRINE]
Reply: 6.56

Ask: Quick check: pD2 of CC(C)NC1CCc2cc(O)c(O)cc2[C@H]1O (stereo partly specified) ?
Reply: 5.72

Ask: Value lookup for pD2; key = CC(C)N1CCOC(c2ccc(O)c(O)c2)C1 (stereo unspecified)
Reply: 5

Ask: Return reported pD2; argument: Oc1ccc(C2CNCCO2)cc1O (stereo unspecified)
Reply: 7.34

Ask: Which pD2 is reported for this compound? Oc1ccc(C2(O)CCCNC2)cc1O (stereo unspecified)
Reply: 5.56

====

biological target: Beta-1 adrenergic receptor (Rattus norvegicus, UniProt P18090)
Sequence (P18090 whole entry): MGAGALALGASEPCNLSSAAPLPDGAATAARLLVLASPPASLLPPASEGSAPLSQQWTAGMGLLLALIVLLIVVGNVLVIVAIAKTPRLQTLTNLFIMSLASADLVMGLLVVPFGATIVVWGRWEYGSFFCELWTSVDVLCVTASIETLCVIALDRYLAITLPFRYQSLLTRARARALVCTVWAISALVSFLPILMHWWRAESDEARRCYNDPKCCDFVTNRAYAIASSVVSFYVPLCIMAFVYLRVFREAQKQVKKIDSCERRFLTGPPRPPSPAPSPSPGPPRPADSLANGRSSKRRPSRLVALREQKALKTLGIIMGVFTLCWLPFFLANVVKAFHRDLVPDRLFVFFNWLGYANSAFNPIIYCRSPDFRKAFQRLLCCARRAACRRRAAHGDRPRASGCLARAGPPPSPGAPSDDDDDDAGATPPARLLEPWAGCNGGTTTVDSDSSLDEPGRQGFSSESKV
Recorded metric: pKi
Note on pKi: it is the negative log10 of concentration, concentration in mol/L.

CC(C)N1CCCC(O)(c2ccc(O)c(O)c2)C1 (stereo unspecified) :: 4.22
N[C@@H]1CCc2c(ccc(O)c2O)[C@H]1O :: 5.10

Now look at this entry.
Ask: # value lookup — system Beta-1 adrenergic receptor (Rattus norvegicus, UniProt P18090), readout pKi, item CC(C)N[C@@H]1CCc2c(ccc(O)c2O)[C@H]1O
Reply: 6.12

====

target: Beta-2 adrenergic receptor (Bos taurus); test: Compound was evaluated for beta adrenergic binding affinity towards beta-2 receptor of bovine lung
Recorded metric: pKi
The meaning of pKi here: minus log10 of the concentration in molar units.

Reference set (3 entries):
Oc1ccc(C2CNCCO2)cc1O (stereo unspecified) :: 5.04
NC[C@H](O)c1ccc(O)c(O)c1 [NOREPINEPHRINE] :: 5.22
CC(C)N1CCOC(c2ccc(O)c(O)c2)C1 (stereo unspecified) :: 4.44

Let us examine a further case.
Ask: Bench note: what pKi did N[C@@H]1CCc2c(ccc(O)c2O)[C@H]1O show?
Reply: 6.92

====

molecular target: Beta-1 adrenergic receptor (Rattus norvegicus, UniProt P18090)
pKi: −log10 of the molar value.
Recorded metric: pKi

Ask: State the recorded pKi for this entry: CC(C)NC1CCc2cc(O)c(O)cc2[C@H]1O (stereo partly drawn)
Reply: < 4.00

Ask: State the recorded pKi for this entry: N[C@@H]1CCc2cc(O)c(O)cc2[C@H]1O
Reply: < 4.00

Ask: Please give the measured pKi for this compound: Oc1ccc(C2(O)CCCNC2)cc1O (stereo not drawn)
Reply: < 4.00
